# Assay summary: Plasma Concentration after 90 min of oral administration to mice
# Type: ADME, organism-based
# Conditions used: mouse
Parameter: concentration at 1.5 h (nM)

Answered examples (6):
compound="CCOC(=O)NC(C(=O)N[C@@H](Cc1ccccc1)[C@H](O)CN(CC1CCCCC1)NC(=O)C(NC(=O)OCC)C(C)C)C(C)C (stereo partly drawn)" numeric_readout=7800
compound="COC(=O)N[C@H](C(=O)N[C@@H](Cc1ccccc1)C(O)CN(CCC(C)C)NC(=O)[C@@H](NC(=O)OC)C(C)C)C(C)C (stereo partly drawn)" numeric_readout=400
compound="C=CCOC(=O)NC(C(=O)N[C@@H](Cc1ccccc1)[C@H](O)CN(CC1CCCCC1)NC(=O)C(NC(=O)OCC=C)C(C)C)C(C)C (stereo partly drawn)" numeric_readout=900
compound="CCOC(=O)NC(C(=O)NN(CC1CCCCC1)C[C@@H](O)[C@H](Cc1ccccc1)NC(=O)C(NC(=O)OC)C(C)C)C(C)C (stereo partly drawn)" numeric_readout=5800
compound="CCOC(=O)NC(C(=O)N[C@@H](Cc1ccccc1)[C@H](O)CN(CC1CCCCC1)NC(=O)C(NC(=O)OCCOC)C(C)C)C(C)C (stereo partly drawn)" numeric_readout=1000
compound="COCCOC(=O)NC(C(=O)NN(CC1CCCCC1)C[C@@H](O)[C@H](Cc1ccccc1)NC(=O)C(NC(=O)OC)C(C)C)C(C)C (stereo partly drawn)" numeric_readout=3000

(1) CCOC(=O)NC(C(=O)N[C@@H](Cc1ccccc1)[C@H](O)CN(CC1CCCCC1)NC(=O)C(NC(=O)OC)C(C)C)C(C)C (stereo partly drawn)
(2) CC(C)C(NC(=O)OCc1ccccc1)C(=O)NN(CC1CCCCC1)C[C@H](O)[C@H](Cc1ccccc1)NC(=O)[C@H](CC(N)=O)NC(=O)c1ccc2ccccc2n1 (stereo partly drawn)
Which item exceeds the other in concentration at 1.5 h, 1 or 2 ? Selection: enter the item's label. 1
(1: 1200 nM, 2: 800 nM)

FYI, the data here is from ChEMBL document CHEMBL1129270.
